I'd be grateful if you could share measured half-life for these entries.
Experiment Notes: T/2 in human plasma
Assay type: in vitro ADME
Answers are plain numbers, in min.

>  <Substance>
Ac-GAQFSKTAA-OH [BIO-10901]

>  <Scale Unit>
min

>  <half-life>
5

$$$$

Now look at this one.
Ask | Give the reported value of half-life for this record: H-GAQFSKTAAK-NH2 [BIO-11005]
Reply | 20

----------
Experiment Notes: T/2 in human plasma
Assay type: in vitro ADME
Residues, ends and D or L forms follow the SMILES beside them. *: point of attachment. Myristoyl = CCCCCCCCCCCCCC(=O)*
Measured Quantity: half-life (h)
Answers are plain numbers, in h.

Ask | Give the reported value of half-life for this record: CCCCCCCCCCCCCC(=O)NCC(=O)N[C@@H](C)C(=O)N[C@@H](CCC(N)=O)C(=O)N[C@@H](Cc1ccccc1)C(=O)N[C@@H](CO)C(=O)N[C@@H](CCCCN)C(=O)N[C@H](C(=O)N[C@@H](C)C(=O)N[C@@H](C)C(=O)N[C@@H](CCCCN)C(=O)O)[C@@H](C)O [BIO-11000] (Myristoyl-GAQFSKTAAK-OH)
Reply | 1.2

----------
Experiment Notes: Solubility in HNS
Type: physicochemical
Measured Quantity: solubility (mg/mL)
Answers are plain numbers, in mg/mL.

Worked examples follow.
>  <Substance>
Ac-GAQFSKTAAKGEAAAERPGEAAVA-OH [Ac-MANS]

>  <Result Value>
125

$$$$
>  <Substance>
H-GAQFSKTAAK-NH2 [BIO-11005]

>  <Result Value>
100

$$$$
>  <Substance>
Ac-GAQFSKTAAKGE-NH2 [BIO-11211]

>  <Result Value>
60

$$$$

Ask | Give the reported value of solubility for this record: Ac-GAQFSKTA-OH [BIO-10803]
Reply | 200

----------
I'd be grateful if you could share measured solubility for these entries.
Experiment Notes: Solubility in HNS
Type: physicochemical
Residues, ends and D or L forms follow the SMILES beside them. *: point of attachment. Myristoyl = CCCCCCCCCCCCCC(=O)*
Numbers only, in mg/mL.

Worked examples follow.
>  <Compound>
CC(=O)N[C@@H](C)C(=O)N[C@@H](CCCCN)C(=O)NCC(=O)N[C@@H](CCC(=O)O)C(=O)O [BIO-91201, Ac-AKGE-OH] (Ac-AKGE-OH)

>  <solubility (mg/mL)>
200

$$$$
>  <Compound>
C[C@@H]1NC(=O)CNC(=O)[C@H](CCCCN)NC(=O)[C@H](C)NC(=O)[C@H](C)NC(=O)[C@H]([C@@H](C)O)NC(=O)[C@H](CCCCN)NC(=O)[C@H](CO)NC(=O)[C@H](Cc2ccccc2)NC(=O)[C@H](CCC(N)=O)NC1=O [BIO-11007] (cyclo(GAQFSKTAAK); ring closure inferred)

>  <solubility (mg/mL)>
150

$$$$
>  <Compound>
CCCCCCCCCCCCCC(=O)NCC(=O)N[C@@H](C)C(=O)N[C@@H](CCC(N)=O)C(=O)N[C@@H](Cc1ccccc1)C(=O)N[C@@H](CO)C(=O)N[C@@H](CCCCN)C(=O)N[C@H](C(=O)N[C@@H](C)C(=O)N[C@@H](C)C(=O)N[C@@H](CCCCN)C(=O)O)[C@@H](C)O [BIO-11000] (Myristoyl-GAQFSKTAAK-OH)

>  <solubility (mg/mL)>
15

$$$$

Now look at this one.
Ask | Give the reported value of solubility for this record: CC(=O)N[C@@H](C)C(=O)N[C@@H](CCCCN)C(=O)NCC(=O)N[C@@H](CCC(=O)O)C(N)=O [BIO-91202, Ac-AKGE-NH2] (Ac-AKGE-NH2)
Reply | 200
